Attribution: patent US8633183B2

// values below are pIC50; system is PI3Kalpha (Homo sapiens (Human))
Formally, pIC50 is defined as -log10 of the concentration c, with c in mol/L.

[[record]]
compound = "CCc1ncnc(-c2ccc(C(=O)N3CCN(C(C)CC)CC3)c(F)c2)c1C#Cc1ccc(N)nc1 (stereo not drawn)"
assay_readout = "pIC50"
endpoint_value = 6.41


Ask: Please state recorded pIC50 (tested on PI3Kalpha (Homo sapiens (Human))) of CCc1ncnc(-c2ccc(C(=O)N3CCN(CC)CC3)c(OC)c2)c1C#Cc1ccc(N)nc1
Reply: 6.67

Ask: Then what about the compound CCc1ncnc(-c2cc(F)c(C(=O)N3CCCC3)c(F)c2)c1C#Cc1ccc(N)nc1 ?
Reply: 6.90

Ask: Another compound to check: CCCCN1CCN(C(=O)c2ccc(-c3ncnc(C)c3C#Cc3ccc(N)nc3)cc2)CC1
Reply: 6.82

Ask: Next compound: CCc1ncnc(-c2ccc(C(=O)N3CCN(CC(F)(F)F)CC3)c(F)c2)c1C#Cc1ccc(N)nc1
Reply: 6.88

Ask: Also check CCc1ncnc(-c2ccc(C(=O)N3CCN(C4CCOCC4)CC3)c(C)c2)c1C#Cc1ccc(N)nc1
Reply: 7.07

Ask: Same thing, different compound: CCc1ncnc(-c2cc(F)c(C(=O)N3CCC4(CC3)CNC4)c(F)c2)c1C#Cc1ccc(N)nc1
Reply: 6.03

====

As a worked illustration, we turn to pIC50 data collected for PI3Kalpha (Homo sapiens (Human), UniProt P42336).
The read-out pIC50 is expressed as -log10 of concentration in moles per litre.

[[record]]
compound = "CCc1ncnc(-c2ccc(C(=O)N(C)CCN3CCCC3=O)c(OC)c2)c1C#Cc1ccc(N)nc1"
assayed_target = "PI3Kalpha (Homo sapiens (Human), UniProt P42336)"
assay_readout = "pIC50"
endpoint_value = 7.06

[[record]]
compound = "CCc1ncnc(-c2ccc(C(=O)N3CCN(CC4CCCN(C)C4)CC3)c(F)c2)c1C#Cc1ccc(N)nc1 (stereo not drawn)"
assayed_target = "PI3Kalpha (Homo sapiens (Human), UniProt P42336)"
assay_readout = "pIC50"
endpoint_value = 6.73

[[record]]
compound = "CCc1ncnc(-c2ccc(C(=O)N3CCC(C4CCN(C)CC4)CC3)c(Cl)c2)c1C#Cc1ccc(N)nc1 [Example E-21]"
assayed_target = "PI3Kalpha (Homo sapiens (Human), UniProt P42336)"
assay_readout = "pIC50"
endpoint_value = 6.43

[[record]]
compound = "CCc1ncnc(-c2ccc(C(=O)N3CCN4CCCCC4C3)c(F)c2)c1C#Cc1ccc(N)nc1 (stereo not drawn)"
assayed_target = "PI3Kalpha (Homo sapiens (Human), UniProt P42336)"
assay_readout = "pIC50"
endpoint_value = 6.63

[[record]]
compound = "CCc1ncnc(-c2ccc(C(=O)N3CCN4CCC[C@H]4C3)c(OC(F)(F)F)c2)c1C#Cc1ccc(N)nc1"
assayed_target = "PI3Kalpha (Homo sapiens (Human), UniProt P42336)"
assay_readout = "pIC50"
endpoint_value = 6.80

[[record]]
compound = "CCc1ncnc(-c2cc(F)c(C(=O)N3CCN(Cc4cc(C)no4)CC3)c(Cl)c2)c1C#Cc1ccc(N)nc1"
assayed_target = "PI3Kalpha (Homo sapiens (Human), UniProt P42336)"
assay_readout = "pIC50"
endpoint_value = 6.97


Ask: Any idea what pIC50 was measured for CCc1ncnc(-c2ccc(C(=O)NCC3CCN(C)C3)c(F)c2)c1C#Cc1ccc(N)nc1 (stereo not drawn) ?
Reply: 6.47

Ask: And for CCc1ncnc(-c2ccc(C(=O)N3CCCO3)c(OC)c2)c1C#Cc1ccc(N)nc1 ?
Reply: 6.80

Ask: For CCc1ncnc(-c2ccc(C(=O)N3CCC(CCO)CC3)c(F)c2)c1C#Cc1ccc(N)nc1 then?
Reply: 6.90

Ask: Also CCc1ncnc(-c2ccc(Cl)c(C(=O)N3CCCCC3)c2)c1C#Cc1ccc(N)nc1 ?
Reply: 6.22

Ask: Also check CCc1ncnc(-c2cc(F)c(C(=O)N3CCC(CO)CC3)c(Cl)c2)c1C#Cc1ccc(N)nc1
Reply: 6.92

Ask: Quick one: C#CCN1CCN(C(=O)c2ccc(-c3ncnc(CC)c3C#Cc3ccc(N)nc3)cc2F)CC1
Reply: 6.75

Ask: Another compound to look at: CCc1ncnc(-c2ccc(C(=O)N3CCN(C4CCCC4O)CC3)c(Cl)c2)c1C#Cc1ccc(N)nc1 (stereo not drawn)
Reply: 7.24

Ask: Moving on to the next compound: CCc1ncnc(-c2ccc(C(=O)N3CCC(C(C)(C)O)CC3)c(F)c2)c1C#Cc1ccc(N)nc1
Reply: 6.77

Ask: Repeat with CCc1ncnc(-c2ccc(C(=O)N3CC[C@@H](N(C)C)C3)c(Cl)c2)c1C#Cc1ccc(NC)nc1
Reply: 6.45

====

target: UniProt P42336
pIC50: −log10 of the molar value.
Assign 1.0 to entries whose pIC50 meets or exceeds 7; assign 0.0 to the rest.

Ask: Please indicate if the recorded pIC50 for CCc1ncnc(-c2cc(F)c(C(=O)N3CCN(Cc4nc(C)c(C)o4)CC3)c(F)c2)c1C#Cc1ccc(N)nc1 [Example E-300] meets or exceeds 7.
Reply: 0.0

====

The listing below reports IC50 for compounds tested on PI3Kalpha (Homo sapiens (Human), UniProt P42336).
Sequence (P42336 whole entry, looked up): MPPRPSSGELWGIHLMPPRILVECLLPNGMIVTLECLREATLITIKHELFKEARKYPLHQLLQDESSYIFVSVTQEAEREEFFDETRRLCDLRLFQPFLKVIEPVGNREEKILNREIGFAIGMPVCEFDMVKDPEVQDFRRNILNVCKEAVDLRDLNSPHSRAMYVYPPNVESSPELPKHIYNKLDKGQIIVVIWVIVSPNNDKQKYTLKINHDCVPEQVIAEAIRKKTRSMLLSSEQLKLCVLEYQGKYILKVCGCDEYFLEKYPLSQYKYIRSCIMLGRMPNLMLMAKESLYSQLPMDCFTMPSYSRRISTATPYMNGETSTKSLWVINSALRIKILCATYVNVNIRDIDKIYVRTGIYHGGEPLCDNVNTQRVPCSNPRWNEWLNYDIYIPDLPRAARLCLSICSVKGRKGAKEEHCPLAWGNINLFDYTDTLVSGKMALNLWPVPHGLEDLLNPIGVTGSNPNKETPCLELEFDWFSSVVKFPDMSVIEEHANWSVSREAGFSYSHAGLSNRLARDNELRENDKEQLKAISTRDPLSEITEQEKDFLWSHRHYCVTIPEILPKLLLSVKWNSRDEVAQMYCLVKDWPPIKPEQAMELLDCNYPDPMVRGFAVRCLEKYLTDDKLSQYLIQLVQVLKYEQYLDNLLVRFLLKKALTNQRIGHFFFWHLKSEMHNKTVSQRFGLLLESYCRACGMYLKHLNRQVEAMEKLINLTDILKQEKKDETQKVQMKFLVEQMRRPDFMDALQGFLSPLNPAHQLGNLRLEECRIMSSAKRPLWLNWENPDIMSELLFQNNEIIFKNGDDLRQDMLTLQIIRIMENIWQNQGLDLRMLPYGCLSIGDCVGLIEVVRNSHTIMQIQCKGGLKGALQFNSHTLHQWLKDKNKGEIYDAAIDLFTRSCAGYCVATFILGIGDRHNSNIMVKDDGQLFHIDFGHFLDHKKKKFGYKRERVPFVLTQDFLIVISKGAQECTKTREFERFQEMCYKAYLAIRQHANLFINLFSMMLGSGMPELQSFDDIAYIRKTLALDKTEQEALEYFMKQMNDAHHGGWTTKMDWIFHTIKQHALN
Give a bare numeral; the unit nM is implied.

[[record]]
compound = "CCc1ncnc(-c2ccc(C(=O)N3CCN(S(=O)(=O)CC)CC3)c(Cl)c2)c1C#Cc1ccc(N)nc1"
endpoint_value = 39.5

[[record]]
compound = "CCc1ncnc(-c2ccc(C(=O)N3CCN(C(C)=O)CC3)c(F)c2)c1C#Cc1ccc(N)nc1"
endpoint_value = 62

[[record]]
compound = "CCc1ncnc(-c2ccc(C(=O)N3CCN(CC4CCCO4)CC3)c(F)c2)c1C#Cc1ccc(N)nc1C (stereo not drawn)"
endpoint_value = 192

[[record]]
compound = "CCc1ncnc(-c2cc(F)c(C(=O)N3CCN(CC(C)(C)O)CC3)c(F)c2)c1C#Cc1ccc(NC)nc1"
endpoint_value = 645

[[record]]
compound = "CCc1ncnc(-c2ccc(C(=O)N3CCCN(C)CC3)c(Cl)c2)c1C#Cc1ccc(N)nc1 [Example E-36]"
endpoint_value = 405


Ask: Which IC50 value belongs to CCc1ncnc(-c2cc(F)c(C(=O)N3CCN(C(C)COC)CC3)c(F)c2)c1C#Cc1ccc(N)nc1 (stereo not drawn) ?
Reply: 187

Ask: What about this compound? Cc1ncnc(-c2cc(Cl)cc(C(=O)N(C)C)c2)c1C#Cc1ccc(N)nc1
Reply: 68

Ask: Please do the same for CCc1ncnc(-c2ccc(C(=O)N3CCN(Cc4ncon4)CC3)c(Cl)c2)c1C#Cc1ccc(N)nc1 as well.
Reply: 137

Ask: Check CCc1ncnc(-c2ccc(C(=O)N3CCN4CCCCC4C3)c(F)c2)c1C#Cc1ccc(N)nc1C (stereo not drawn) too.
Reply: 481

Ask: Here is the next compound: CCc1ncnc(-c2ccc(C(=O)N3CCN(CC(C)O)CC3)c(F)c2)c1C#Cc1ccc(N)nc1 (stereo not drawn)
Reply: 122

Ask: // next record CCc1ncnc(-c2ccc(C(=O)N3C[C@@H]4CCN[C@@H]4C3)c(F)c2)c1C#Cc1ccc(N)nc1
Reply: 655

Ask: Entry CCc1ncnc(-c2cc(F)c(C(=O)N3CCn4ccnc4C3)c(F)c2)c1C#Cc1ccc(N)nc1 please
Reply: 55.7

Ask: Let us now turn to CCc1ncnc(-c2ccc(C(=O)N3CCn4c(C)cnc4C3)c(F)c2)c1C#Cc1ccc(N)nc1
Reply: 95.4

Ask: Try the compound Cc1ncnc(-c2ccc(F)c(C(=O)N3CCCCC3)c2)c1C#Cc1ccc(N)nc1
Reply: 539

Ask: Repeat with CCc1ncnc(-c2ccc(C(=O)N3CCC(F)(F)CC3)c(F)c2)c1C#Cc1ccc(N)nc1
Reply: 154

Ask: What about CCc1ncnc(-c2ccc(C(=O)N(C)OC)c(Cl)c2)c1C#Cc1ccc(N)nc1 ?
Reply: 50

Ask: Now give it for CCc1ncnc(-c2cc(F)c(C(=O)NCCN3CCOCC3)c(F)c2)c1C#Cc1ccc(N)nc1 too.
Reply: 154

Ask: Would you mind doing CCc1ncnc(-c2ccc(C(=O)N3CCN(CC4CCCCC4)CC3)c(F)c2)c1C#Cc1ccc(N)nc1 as well?
Reply: 1820

Ask: Again, but for CCc1ncnc(-c2ccc(C(=O)N3CCn4cnnc4C3)c(Cl)c2)c1C#Cc1ccc(N)nc1
Reply: 4.83

Ask: Now the compound CCc1ncnc(-c2ccc(Cl)c(C(=O)N(CC)CC)c2)c1C#Cc1ccc(N)nc1
Reply: 541

Ask: Next: CCc1ncnc(-c2ccc(C(=O)N3CCn4cnnc4C3)c(F)c2)c1C#Cc1ccc(N)nc1
Reply: 50.8

Ask: Here is the next compound: CCc1ncnc(-c2ccc(C(=O)N3CCN(C(CC)CC)CC3)c(F)c2)c1C#Cc1ccc(N)nc1
Reply: 384

====

target: UniProtKB P42336
pIC50: −log10 of the molar value.
Classification field: enter t for pIC50 values not below 7, f for values below it.

[[record]]
compound = "CCc1ncnc(-c2ccc(C(=O)N3CCN(C4CCOCC4)CC3)c(Cl)c2)c1C#Cc1ccc(NC)nc1"
discrete_label = "f"


Ask: Form field: pIC50 at least 7? Entry: CCc1ncnc(-c2ccc(C(=O)N3CCN(C(C)C)CC3)c(C(F)(F)F)c2)c1C#Cc1ccc(N)nc1
Reply: f

Ask: What do you have for CCc1ncnc(-c2ccc(C(=O)N3CCC(CN(C)C)CC3)c(F)c2)c1C#Cc1ccc(N)nc1 ?
Reply: f

Ask: Param item: CCc1ncnc(-c2ccc(C(=O)N3CC[C@H](O)C3)c(Cl)c2)c1C#Cc1ccc(N)nc1 [Example D-145]
Reply: t

Ask: And the next one, Cc1ncnc(-c2cccc(C(=O)N3CCOCC3)c2)c1C#Cc1ccc(N)nc1 ?
Reply: f

Ask: Now consider Cc1ncnc(-c2ccc(C(=O)N(C)C)c(F)c2)c1C#Cc1ccc(N)nc1 and answer again.
Reply: t

Ask: Same again, this time with CCc1ncnc(-c2cc(F)c(C(=O)N3CCN(C)C[C@@H]3C)c(Cl)c2)c1C#Cc1ccc(N)nc1
Reply: f

Ask: What do we get for CCc1ncnc(-c2ccc(C)nc2)c1C#Cc1ccc(N)nc1 ?
Reply: t

Ask: Consider next the compound CCc1ncnc(-c2cc(F)c(C(=O)N3CCN(Cc4nc(C)c(C)o4)CC3)c(Cl)c2)c1C#Cc1ccc(N)nc1 in the same way.
Reply: f

Ask: Follow-up item: CCc1ncnc(-c2ccc(N3CCOCC3)nc2)c1C#Cc1ccc(N)nc1
Reply: t

Ask: Here is the next compound: CCc1ncnc(-c2ccc(C(=O)N3CCN(C(C)(C)C)CC3)c(OC)c2)c1C#Cc1ccc(N)nc1
Reply: f

Ask: Also CCc1ncnc(-c2cc(Cl)c(C(=O)N3CCN(C)C(=O)C3)c(Cl)c2)c1C#Cc1ccc(N)nc1 ?
Reply: t

Ask: What about CCc1ncnc(-c2ccc(C(=O)N3CCC(N4CCOCC4)CC3)c(F)c2)c1C#Cc1ccc(NC)nc1 ?
Reply: f

Ask: Please give the result for CCc1ncnc(-c2ccc(C(=O)N3CCC4(CCN(C)C4)C3)c(C)c2)c1C#Cc1ccc(N)nc1 (stereo not drawn) too.
Reply: f

Ask: Next compound up: CCc1ncnc(-c2cc(F)c(C(=O)N3CCN(C)C(=O)C3)c(Cl)c2)c1C#Cc1ccc(N)nc1
Reply: t
